Experiment: Efflux ratio of apparent permeability in human Caco2 cells measured at 90 mins time interval by LC-MS/MS analysis
Settings: Caco-2
READOUT KIND: efflux ratio at 1.5 h
Enter a number only.

Can you look up the measured efflux ratio at 1.5 h of COCCc1ccc(OCC(O)CNC(C)C)cc1 (configuration not stated) for me?
0.74

* * *

Test: Apparent permeability from apical to basolateral side in human Caco2 cells measured at 90 mins time interval by LC-MS/MS analysis
Settings: Caco-2
READOUT KIND: Papp A→B at 1.5 h (×10⁻⁶ cm/s)
Dear colleague, please return just the value in ×10⁻⁶ cm/s, with no unit written.

Suppose we examine the compound COCCc1ccc(OCC(O)CNC(C)C)cc1 (configuration not stated) ; what Papp A→B at 1.5 h value has been reported?
35.2

* * *

Biological target: Proteasome Macropain subunit MB1 (Homo sapiens)
Sequence (P28074 whole entry): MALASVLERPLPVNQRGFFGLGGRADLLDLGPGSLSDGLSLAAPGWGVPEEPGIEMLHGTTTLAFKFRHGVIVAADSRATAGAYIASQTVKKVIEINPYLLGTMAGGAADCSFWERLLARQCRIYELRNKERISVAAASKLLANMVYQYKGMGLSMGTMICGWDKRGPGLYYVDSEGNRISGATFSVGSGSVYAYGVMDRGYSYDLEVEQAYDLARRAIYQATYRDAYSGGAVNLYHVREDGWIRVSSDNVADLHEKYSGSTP
Test: Inhibition of human 20S proteasome chymotrypsin-like activity using Suc-Leu-Leu-Val-Tyr-AMC as substrate pretreated for 15 mins followed by substrate addition by fluorescence assay
READOUT KIND: pIC50
pIC50 here is simply -log10 of the concentration when that concentration is written in mol/L.

Any idea what pIC50 was measured for COC[C@@H]1NC(=O)c2ccccc2OCCCCCCC[C@@H](C(=O)N[C@@H](Cc2ccccc2)C(=O)[C@@]2(C)CO2)NC1=O ?
7.85

For COC[C@@H]1NC(=O)c2ccc(Cl)cc2OCCCCCCOC[C@@H](C(=O)N[C@@H](Cc2ccccc2)C(=O)[C@@]2(C)CO2)NC1=O , what is its reported pIC50?
7.00

For COC[C@@H]1NC(=O)c2sc(C)nc2OCCCCCCOC[C@@H](C(=O)N[C@@H](Cc2ccccc2)C(=O)[C@@]2(C)CO2)NC1=O , what is its reported pIC50?
6.41

Requested read-out: pIC50. Entry: COC[C@@H]1NC(=O)c2ccc(C)cc2OCCCCCCOC[C@@H](C(=O)N[C@@H](Cc2ccccc2)C(=O)[C@@]2(C)CO2)NC1=O
6.79

Bench note: what pIC50 did COC[C@@H]1NC(=O)c2cc(Cl)ccc2OCCCCCCOC[C@@H](C(=O)N[C@@H](Cc2ccccc2)C(=O)[C@@]2(C)CO2)NC1=O show?
6.36

# get_value(readout='pIC50', item= COC[C@@H]1NC(=O)c2sccc2OCCCCCCOC[C@@H](C(=O)N[C@@H](Cc2ccccc2)C(=O)[C@@]2(C)CO2)NC1=O )
6.59

Name the recorded pIC50 for COC[C@@H]1NC(=O)c2ccccc2OCCCCCCOC[C@@H](C(=O)N[C@@H](Cc2ccccc2)C(=O)[C@@]2(C)CO2)NC1=O .
7.27

Can you share its pIC50? I mean this compound: COC[C@@H]1NC(=O)c2nccn2CCCCCCOC[C@@H](C(=O)N[C@@H](Cc2ccccc2)C(=O)[C@@]2(C)CO2)NC1=O
7.85

Fill in the blank: the reported pIC50 of COC[C@@H]1NC(=O)c2ccccc2OCCCCCCCOC[C@@H](C(=O)N[C@@H](Cc2ccccc2)C(=O)[C@@]2(C)CO2)NC1=O is ____.
7.20

* * *

Biological target: Proteasome Macropain subunit MB1 (Homo sapiens)
Experiment: Inhibition of human 20S proteasome chymotrypsin-like activity using Suc-Leu-Leu-Val-Tyr-AMC as substrate pretreated for 15 mins followed by substrate addition by fluorescence assay
READOUT KIND: pIC50
Please keep in mind that pIC50 is minus log10 of the molar concentration; only the number is needed.

Solved entries:
Can you share its pIC50? I mean this compound: COC[C@@H]1NC(=O)[C@@H]2CCCN2C(=O)CCCCCOC[C@@H](C(=O)N[C@@H](Cc2ccccc2)C(=O)[C@@]2(C)CO2)NC1=O
6.45

I would be grateful if you could share the reported pIC50 for COC[C@@H]1NC(=O)c2ccc(F)cc2OCCCCCCOC[C@@H](C(=O)N[C@@H](Cc2ccccc2)C(=O)[C@@]2(C)CO2)NC1=O .
6.69

Data request, read-out pIC50, for COC[C@@H]1NC(=O)c2ccccc2OCCOCCOC[C@@H](C(=O)N[C@@H](Cc2ccccc2)C(=O)[C@@]2(C)CO2)NC1=O
6.94

Further cases:
May I ask what pIC50 has been recorded for COC[C@@H]1NC(=O)c2cnn(C)c2OCCCCCCOC[C@@H](C(=O)N[C@@H](Cc2ccccc2)C(=O)[C@@]2(C)CO2)NC1=O ?
7.49

Given the compound COC[C@@H]1NC(=O)c2nccn2CCCCCCCOC[C@@H](C(=O)N[C@@H](Cc2ccccc2)C(=O)[C@@]2(C)CO2)NC1=O , what is its reported pIC50?
7.43

What value of pIC50 has been reported for the following compound? COC[C@@H]1NC(=O)c2cccc(F)c2OCCCCCCOC[C@@H](C(=O)N[C@@H](Cc2ccccc2)C(=O)[C@@]2(C)CO2)NC1=O
7.60

Consider the compound COC[C@@H]1NC(=O)c2ccccc2OCCCCOC[C@@H](C(=O)N[C@@H](Cc2ccccc2)C(=O)[C@@]2(C)CO2)NC1=O and give its measured pIC50.
7.44

* * *

Assay: AUC (0 to t) in ICR mouse at 5 mg/kg, iv after 1 hr by LC-MS/MS analysis
Assay type: ADME, organism-based
Parameters: time < 1 hr, dose 5 mg/kg, route intravenous
Details: in vivo
# maps each entry to its AUC(0-t) at 1 h
Please answer using the number first and the unit second.

Field: example entries. Status: answers known.
Any idea what AUC(0-t) at 1 h was measured for COC[C@@H]1NC(=O)c2ccccc2OCCCCCCOC[C@@H](C(=O)N[C@@H](Cc2ccccc2)C(=O)[C@@]2(C)CO2)NC1=O ?
1240 ng·h/mL

For the compound COC[C@@H]1NC(=O)c2ccnn2CCCCCCOC[C@@H](C(=O)N[C@@H](Cc2ccccc2)C(=O)[C@@]2(C)CO2)NC1=O , what AUC(0-t) at 1 h is on record?
784 ng·h/mL

Alright, here's another compound for you.
Sample COC[C@H](NC(=O)c1cnc(C)s1)C(=O)N[C@@H](COC)C(=O)N[C@@H](Cc1ccccc1)C(=O)[C@@]1(C)CO1 [OPROZOMIB] — what was its AUC(0-t) at 1 h?
506 ng·h/mL

* * *

Quick list: Papp B→A at 1.5 h per entry.
Assay: Apparent permeability from basolateral to apical side in human Caco2 cells measured at 90 mins time interval by LC-MS/MS analysis
Conditions: Caco-2

Tell me the measured Papp B→A at 1.5 h of COCCc1ccc(OCC(O)CNC(C)C)cc1 (configuration not stated) , please.
25.9 ×10⁻⁶ cm/s

Now take the following compound into account.
// query Papp B→A at 1.5 h value for entry CC[C@H]1OC(=O)[C@H](C)[C@@H](O[C@H]2C[C@@](C)(OC)[C@@H](O)[C@H](C)O2)[C@H](C)[C@@H](O[C@@H]2O[C@H](C)C[C@H](N(C)C)[C@H]2O)[C@](C)(O)C[C@@H](C)C(=O)[C@H](C)[C@@H](O)[C@]1(C)O
15.1 ×10⁻⁶ cm/s

* * *

Experiment: Tmax in ICR mouse at 25 mg/kg, po via gavage by LC-MS/MS analysis
Assay type: ADME, organism-based
Conditions: in vivo
READOUT KIND: Tmax (min)
Reply numerically in min, unit not repeated.

Data request, read-out Tmax, for COC[C@@H]1NC(=O)c2ccccc2OCCCCCCOC[C@@H](C(=O)N[C@@H](Cc2ccccc2)C(=O)[C@@]2(C)CO2)NC1=O
4.8

Others:
Name the recorded Tmax for COC[C@@H]1NC(=O)c2ccnn2CCCCCCOC[C@@H](C(=O)N[C@@H](Cc2ccccc2)C(=O)[C@@]2(C)CO2)NC1=O .
4.8

Which Tmax is listed for COC[C@H](NC(=O)c1cnc(C)s1)C(=O)N[C@@H](COC)C(=O)N[C@@H](Cc1ccccc1)C(=O)[C@@]1(C)CO1 ?
13.2

* * *

Assay: Oral bioavailability in ICR mouse at 25 mg/kg via gavage by LC-MS/MS analysis
Assay type: ADME, organism-based
Details: in vivo
Reported bioavailability values follow for various molecules
Number in %, nothing else.

Worked examples, 2 molecules total:
Quick one: bioavailability for COC[C@@H]1NC(=O)c2ccnn2CCCCCCOC[C@@H](C(=O)N[C@@H](Cc2ccccc2)C(=O)[C@@]2(C)CO2)NC1=O ?
3.72

Record request: bioavailability value, item COC[C@@H]1NC(=O)c2ccccc2OCCCCCCOC[C@@H](C(=O)N[C@@H](Cc2ccccc2)C(=O)[C@@]2(C)CO2)NC1=O
2.15

Let us move to another entry and its bioavailability.
Recorded bioavailability for COC[C@H](NC(=O)c1cnc(C)s1)C(=O)N[C@@H](COC)C(=O)N[C@@H](Cc1ccccc1)C(=O)[C@@]1(C)CO1 [OPROZOMIB] , please?
5.61

* * *

AUC(0-t) at 1 h values by entry
Test: AUC (0 to t) in ICR mouse at 25 mg/kg, po via gavage after 1 hr by LC-MS/MS analysis
Type: ADME, organism-based
Parameters: time < 1 hr, dose 25 mg/kg, route oral
Settings: in vivo
Number only, in ng·h/mL; omit the unit.

Item under review: COC[C@H](NC(=O)c1cnc(C)s1)C(=O)N[C@@H](COC)C(=O)N[C@@H](Cc1ccccc1)C(=O)[C@@]1(C)CO1 . Reported AUC(0-t) at 1 h?
142

Which value of AUC(0-t) at 1 h has been reported for COC[C@@H]1NC(=O)c2ccnn2CCCCCCOC[C@@H](C(=O)N[C@@H](Cc2ccccc2)C(=O)[C@@]2(C)CO2)NC1=O in the records?
141

Field request: AUC(0-t) at 1 h | item: COC[C@@H]1NC(=O)c2ccccc2OCCCCCCOC[C@@H](C(=O)N[C@@H](Cc2ccccc2)C(=O)[C@@]2(C)CO2)NC1=O
133
